test: resazurin metabolic signal in A549 cells – cell-based, resazurin fluorescence, 24 h, PK04 Diversity Set, profiling panel (AID 1171); settings: A549 viability, higher = more signal, called active from +8 up or from −8 down; note: test concentration not given here
Active and inactive are the calls of the source.
readout label: z-score

Use these answered entries as a reference point.
compound	reading
O=C1O[C@@H](c2ccccc2)[C@@H](c2ccccc2)N2[C@@H](c3ccccc3OCCO)[C@]3(C(=O)Nc4ccc(C#CC5(O)CCCCCC5)cc43)[C@@H](C(=O)NC[C@H](O)c3ccccc3)[C@H]12	-2.91 (inactive)
CC(C)C(=C=CC[C@H](O)c1ccccc1OCCO)CCO	-0.245 (inactive)
C=CCOC(=O)[C@@H]1[C@H]2C(=O)O[C@H](c3ccccc3)[C@H](c3ccccc3)N2[C@H](c2ccc(OCCOC(=O)[C@H]3C[C@H]4C(=O)N[C@@H](Cc5ccccc5)C(=O)N4[C@H]3c3ccc(O)cc3)cc2)[C@@]12C(=O)Nc1ccc(I)cc12	-0.0596 (inactive)
COc1ccc(C#Cc2ccc3c(c2)[C@]2(C(=O)N3)[C@H](c3ccc(OCCO)cc3)N3[C@H](c4ccccc4)[C@H](c4ccccc4)OC(=O)[C@H]3[C@@H]2C(=O)Nc2nc3ccccc3s2)cc1	-1.23 (inactive)

Hello, I would appreciate it if you could give z-score for each entry below.
1. COC(=O)c1nc2oc1CC[C@@H](CO)NC(=O)N(C)Cc1cn(nn1)C[C@H](Cc1ccccc1)NC2=O
2. CC(=O)N1Cc2ccccc2C[C@@]2(N=C(c3ccc(OCCCO)cc3)O[C@H]2c2ccccc2)C1=O
3. COCCOC(=O)N1C(=O)[C@@]2(c3cc(C#CCC(C(=O)OC)C(=O)OC)ccc31)[C@H](c1ccccc1OCCO)N1[C@H](c3ccccc3)[C@H](c3ccccc3)OC(=O)[C@H]1[C@@H]2C(=O)Nc1nc2ccccc2s1
4. CCN(CC)c1ccc(N2CC=CC34O[C@@H]5C=CCOC(=O)[C@@H]5[C@H]3C(=O)N(CCCCCO)[C@@H]4C2=O)cc1 (some centres not stated)
5. C=CCN1C(=O)[C@@]2(O[C@@H](CCO)[C@H]([Si](C)(C)c3ccc(OC)cc3)[C@H]2C)c2cc(NC(C)=O)ccc21
6. O=[N+]([O-])c1ccc(C[n+]2ccc(CCCO)cc2)o1
7. CCCCCCCCCCC(O)C1C=CC2C(=O)N(c3ccccc3)C(=O)C2N1Nc1ccc([N+](=O)[O-])cc1 (configuration not stated)
8. O=C1C[C@@](C(=O)O)(c2ccc([N+](=O)[O-])cc2)[C@@H](c2ccc(CO)cc2I)N1CC12CC3CC(CC(C3)C1)C2

-0.0624 (inactive)
-2.8 (inactive)
-0.0543 (inactive)
-0.0833 (inactive)
-1.17 (inactive)
-0.77 (inactive)
0.381 (inactive)
-1.77 (inactive)

###

Assign composite z-score to each entry below.
biological target: Epidermal growth factor receptor (Homo sapiens) (UniProt P00533); assay: compounds binding epidermal growth factor receptor – biochemical, small-molecule microarray, 635 nm fluorescence, primary screen (AID 1104); details: EGFR binding, higher = more signal;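 note: score merges 667 nm emission intensity with spot signal to noise over triplicate slides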
Sequence (P00533 whole entry, looked up): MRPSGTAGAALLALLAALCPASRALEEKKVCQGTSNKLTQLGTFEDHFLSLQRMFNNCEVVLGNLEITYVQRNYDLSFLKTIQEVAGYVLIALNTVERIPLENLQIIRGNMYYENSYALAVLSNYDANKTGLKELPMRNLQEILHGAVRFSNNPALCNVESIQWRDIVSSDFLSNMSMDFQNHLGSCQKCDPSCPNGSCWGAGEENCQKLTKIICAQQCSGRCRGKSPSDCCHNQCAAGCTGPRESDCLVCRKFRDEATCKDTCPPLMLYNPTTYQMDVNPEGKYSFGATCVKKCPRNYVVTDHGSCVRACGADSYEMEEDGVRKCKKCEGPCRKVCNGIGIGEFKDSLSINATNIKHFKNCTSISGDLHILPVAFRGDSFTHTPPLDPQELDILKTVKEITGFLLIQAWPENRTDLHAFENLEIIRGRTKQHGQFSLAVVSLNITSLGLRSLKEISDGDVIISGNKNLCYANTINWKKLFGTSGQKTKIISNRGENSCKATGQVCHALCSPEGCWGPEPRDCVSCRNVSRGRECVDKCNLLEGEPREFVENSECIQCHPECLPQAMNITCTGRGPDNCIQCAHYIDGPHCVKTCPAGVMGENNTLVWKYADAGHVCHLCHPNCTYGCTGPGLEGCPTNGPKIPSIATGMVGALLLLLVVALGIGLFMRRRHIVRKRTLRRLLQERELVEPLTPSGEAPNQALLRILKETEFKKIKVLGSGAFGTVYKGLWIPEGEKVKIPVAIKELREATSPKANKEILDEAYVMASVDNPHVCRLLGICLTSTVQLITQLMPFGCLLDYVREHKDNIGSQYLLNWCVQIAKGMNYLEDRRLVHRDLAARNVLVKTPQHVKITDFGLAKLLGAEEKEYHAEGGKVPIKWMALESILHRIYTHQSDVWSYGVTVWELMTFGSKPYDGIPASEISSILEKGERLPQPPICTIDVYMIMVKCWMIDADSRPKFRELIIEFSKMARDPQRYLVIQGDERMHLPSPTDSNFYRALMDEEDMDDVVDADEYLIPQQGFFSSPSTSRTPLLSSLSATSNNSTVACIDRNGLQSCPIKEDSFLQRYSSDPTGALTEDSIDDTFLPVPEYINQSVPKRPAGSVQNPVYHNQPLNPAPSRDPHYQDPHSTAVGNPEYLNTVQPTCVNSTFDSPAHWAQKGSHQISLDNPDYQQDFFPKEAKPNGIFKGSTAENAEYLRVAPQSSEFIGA
One number for each entry.

molecule	composite z-score
C=CCC(OC(C)=O)[C@@H]1[C@@H](N(Cc2cc3ccccc3o2)C(=O)c2ccc(C)cc2)c2cc(OCCCO)ccc2N1C(=O)c1ccc(-c2ccccc2)cc1 (some centres undefined)	0.0009
C/C=C/[C@H](CCn1cc([C@H](O)c2ccccc2)nn1)[Si](C)(C)c1ccc(OC)cc1	-1.52

For each listed entry, give its composite z-score.
1. CO[C@H]1O[C@H](CO)[C@@H](OC(=O)Nc2cccc(F)c2)[C@H](OC(=O)Nc2ccccc2-c2ccccc2)[C@@H]1OC(=O)Nc1ccccc1-c1ccccc1
2. COC(=O)[C@@]1(Cc2ccccc2)[C@H]2c3cc(C(=O)N(C)C)n(Cc4cc(F)c(F)c(F)c4)c3C[C@H]2CN1C(=O)c1ccccc1
3. CS(=O)(=O)CCOC(=O)C1=CC(c2ccc(CO)cc2)=CC(c2cccs2)N(Cc2cccc(OC(F)(F)F)c2)C=C1C(=O)OCCS(C)(=O)=O (centres undefined)
4. Cc1ccc(N2C(=O)c3ccccc3[C@](C)(C(=O)NCCN3CCOCC3)[C@@H]2c2ccc(CO)cc2)nc1
5. C=CCC(OC(C)=O)[C@@H]1[C@@H](N(Cc2cc3ccccc3o2)C(=O)c2cccc3ccccc23)c2cc(OCCCO)ccc2N1C(=O)Cc1ccc(OC)cc1 (some centres undefined)
6. O=C1C2C=CC(C(O)c3ccc(Br)cc3)N(n3cnnc3)C2C(=O)N1Cc1ccccc1 (centres undefined)

1: 0.407; 2: 0.0296; 3: 0.084; 4: -1.41; 5: 0.24; 6: 0.406

Any idea what composite z-score came out for CCOC(=O)C[C@H]1[C@H](OC(=O)c2ccc(C(=O)c3ccccc3)cc2)[C@@H](NC(=O)c2ccc3ccccc3n2)c2cc(OCCCO)ccc2N1C(=O)c1ccc2ccccc2n1 on Epidermal growth factor receptor (Homo sapiens) (UniProt P00533)?
0.703

###

assay: blockers of DNA damage checkpoint Chk1 activation – imaging, HeLa, hydroxyurea, phospho-Chk1 antibody, percent positive cells, primary screen (AID 1186); conditions: hydroxyurea-induced phospho-Chk1 immunofluorescence imaging, higher = more signal
Label MET for high-side z-score (at or above 0.07) and NOT MET for low-side z-score (below it).

Sample answers from the record:
> print(dat)
                                   molecule  assigned.category
1  [N-]=[N+]=NCc1ccccc1[C@@H]1OC(c2ccc(OCCCO)cc2)=N[C@]1(Cc1ccccc1)C(=O)O                MET
2  C=C(C)[C@@H]1CC=C(C(O)C2C=CC3C(=O)N(Cc4ccccc4)C(=O)C3N2n2cnnc2)CC1 (stereo partly drawn)            NOT MET
3  Oc1ccc2cc[n+](Cc3cccc(OC(F)(F)F)c3)cc2c1            NOT MET
4  COc1ccccc1CN1C(=O)c2ccccc2[C@](Cc2ccccc2I)(C(=O)NCc2ccccc2)[C@@H]1c1ccc(CO)cc1                MET
5  C=CCCN(CC#C[C@H]1Oc2ccccc2S(=O)(=O)N2CCC[C@@H]12)S(=O)(=O)c1ccc(C)cc1                MET

Please check the record CC(=O)NCCCC[C@@H]1NC(=O)[C@@H]2C[C@H](C(=O)NCCCCCC[N+](C)(C)C)[C@H](c3cccc(OCCO)c3)N2C1=O and state if its z-score is at or above 0.07.
NOT MET

Check this molecule for z-score at or above 0.07: O=C(NCCN1CCOCC1)[C@@H]1c2ccccc2C(=O)N(Cc2cc(F)cc(C(F)(F)F)c2)[C@H]1c1ccc(CO)cc1
NOT MET

###

I'd appreciate it if you could supply z-score values for the items below.
assay: compound effects on differentiated 3T3-L1 adipocyte viability – cell-based, 3T3-L1 adipocytes, calcein-AM fluorescence, 48 h, basal, profiling panel (AID 1163); details: 3T3-L1 adipocytes viability, higher = more signal; note: test concentration not given here

Consider the reported z-score for these compounds:
> print(dat)
                                   compound  readout.label  reading
1  Cc1ccc(S[C@]2(C(=O)NCCCN(C)C)CC(=O)N(C(C)C)[C@@H]2c2ccc(CO)cc2I)cc1        z-score   -0.054
2  COc1ccc([Si](C)(C)[C@H]2[C@H](CCO)O[C@@]3(C(=O)N(Cc4ccccc4)c4ccc(N5C(=O)COc6ccccc65)cc43)[C@@H]2C)cc1        z-score    0.281

State the recorded z-score for every item in the following list.
1. CCCC[C@@H]1C[C@H]1[C@@H](NC(=O)c1ccccc1)c1ccc(-c2ccccc2)cc1
2. [N-]=[N+]=Nc1ccccc1C[C@]1(C(=O)N2CCCCC2)N=C(c2ccc(OCCCO)cc2)O[C@H]1c1ccccc1N=[N+]=[N-]
3. O=C1OCC=C[C@H]2OC34C=CCN(CCN5CCOCC5)C(=O)[C@H]3N(CCCCCCO)C(=O)[C@@H]4[C@@H]12 (some centres not stated)
4. O=C1C2C=CC(C(O)c3cccc4ccccc34)N(n3cnnc3)C2C(=O)N1Cc1ccccc1 (configuration not stated)
5. [N-]=[N+]=Nc1ccccc1[C@@H]1OC(c2ccc(OCCCO)cc2)=N[C@]1(CCS(=O)(=O)c1ccccc1)C(=O)N1CCCCC1

1. -1.15
2. 0.164
3. -0.0626
4. -0.06
5. -0.56

###

system: Human papillomavirus type 1a protein E7 (residues 44-93); test: small molecules binding HPV E7 44-93 – biochemical, small-molecule microarray, residues 44-93, 635 nm fluorescence, primary screen (AID 1108); conditions: fluorescence 635 nm, higher = more signal;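 note: E7 fragment applied at 1 µg/mL in TBST for 1 h at 4 C; score combines spot fluorescence with its signal to noise ratio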
readout label: composite z-score
Numbers only.

compound	reading
CN(C)CCCCCCNC(=O)[C@@H]1C[C@@H]2C(=O)N[C@@H](Cc3ccccc3)C(=O)N2[C@@H]1c1cccc(OCCO)c1	1.39
CN1C(=O)C2C=CC(C(O)c3ccccc3)N(NC(=O)OC(C)(C)C)C2C1=O (stereo not given)	1.32
C=CCOC(=O)[C@@H]1[C@H]2C(=O)O[C@H](c3ccccc3)[C@H](c3ccccc3)N2[C@H](c2ccc(OCCOC(=O)[C@H]3C[C@H]4C(=O)N[C@@H](CC(C)C)C(=O)N4[C@H]3c3cccc(OCCO)c3)cc2)[C@@]12C(=O)Nc1ccc(I)cc12	1.44
Cc1ccc(S[C@]2(C(=O)NCC(F)(F)F)CC(=O)N(C3Cc4ccccc4C3)[C@@H]2c2ccc(CO)cc2I)cc1	-0.263
COCCCNC(=O)[C@@]1(Cc2ccccc2I)c2ccccc2C(=O)N(Cc2ccccc2)[C@H]1c1ccc(CO)cc1	0.609
O=C1O[C@H](c2ccccc2)[C@H](c2ccccc2)N2[C@H]1[C@@H](C(=O)NC[C@H](O)c1ccccc1)[C@]1(C(=O)Nc3ccc(C#CC4=CCCCC4)cc31)[C@H]2c1ccc(O)cc1	1.38
CCCC[C@H]1C[C@@H]1[C@@H]1N(P(=O)(c2ccccc2)c2ccccc2)[C@](CO)(c2ccccc2)CC12CC2	0.992
CC(=O)NCCCC[C@@H]1NC(=O)[C@@H]2C[C@H](C(=O)NCCCCCC[N+](C)(C)C)[C@H](c3cccc(OCCO)c3)N2C1=O	1.39
COC(=O)[C@@]1(Cc2ccc(F)cc2)[C@H]2c3cc(C(=O)N(C)C)n(Cc4ccccn4)c3C[C@H]2CN1C(=O)c1ccccc1	1.4
[N-]=[N+]=NCc1ccccc1[C@@H]1OC(c2ccc(OCCCO)cc2)=N[C@]1(Cc1ccccc1)C(=O)O	1.38

Need composite z-score for each of these compounds.
1. C=CCN1Cc2ccccc2C[C@@]2(COC(c3ccc(OCCCO)cc3)=N2)C1=O
2. COc1ccc([Si](C)(C)[C@@H]2[C@@H](CCO)O[C@]3(C(=O)N(Cc4cccc(N5CCCCC5=O)c4)c4ccccc43)[C@H]2C)cc1
3. COC(=O)[C@@]1(Cc2ccc(OC)cc2)[C@H]2c3cc(C(=O)N4CCCC4)n(CCc4ccccn4)c3C[C@H]2CN1C(=O)c1ccccc1
4. COc1cc(CO)cc(I)c1O[C@H]1C=C(C(=O)NCCO)C[C@@H](N(CCc2cccc(F)c2)C(=O)CCC2CCCC2)[C@@H]1O
5. COC(=O)c1c2oc(c1C(=O)OC)C(=O)N[C@H](Cc1ccccc1)Cn1nncc1C1(CCCCC1)NC(=O)N[C@H](CO)CC2
6. O=C1C2C=CC(C(O)c3ccc(-c4ccccc4)s3)N(Nc3ccccc3F)C2C(=O)N1c1ccccc1 (stereo not given)
7. O=C1O[C@H](c2ccccc2)[C@H](c2ccccc2)N2[C@H]1[C@@H](C(=O)Nc1nc3ccccc3s1)[C@]1(C(=O)Nc3ccc(C#CC4=CCCCC4)cc31)[C@H]2c1ccc(OCCO)cc1

1: 1.42; 2: 1.34; 3: -0.091; 4: 1.43; 5: 0.613; 6: 1.37; 7: 0.945
